Assay: Pharmacokinetic study
Format: in vivo, SD rats
Conditions: male, SD, rat, plasma, po, 10 mg/kg, p.o. 10 mg/kg, 4.00 h; read-out: Concentration in rat plasma, mean
endpoint-name: concentration at 4 h (ng/mL)
One number for each entry, in ng/mL.

Reported concentration at 4 h for `C[C@H](Oc1ccc(-c2nc3nc(C4=CCN(C(=O)OC(C)(C)C)CC4)ccc3[nH]2)cc1)c1ccccc1` : what is it?
7.83

###

Assay: Pharmacokinetic study
Type: in vivo, SD rats
Details: male, Sprague-Dawley (SD), rat, plasma, iv, 3 mg/kg, SD rats, 3 mg/kg iv, mean
endpoint-name: half-life (min)
Give bare numbers, in min.

Reported half-life for `C[C@H](Oc1ccc(-c2nc3nc(C4=CCN(C(=O)OC(C)(C)C)CC4)ccc3[nH]2)cc1)c1ccccc1` : what is it?
816

###

Assay: Pharmacokinetic study
Assay type: in vivo, SD rats
Settings: male, SD, rat, plasma, iv, 3 mg/kg, rat, i.v. 3 mg/kg, individual animals 4-6; read-out: AUClast
Procedure: W2014-S was given to SD rats (male, 230-260g, n = 6) by gavage and intravenous administration. The rats were fasted for 12 h before administration and remained fasting for 2 h. For oral gavage, W2014-S was dissolved in DMSO/0.5% HPMC (5/95, v/v/), and W2014-S was dissolved in DMSO/EtOH/PEG300/0.9% NaCl (5/5/40/50, v/v/v/v) for intravenous administration. The pharmacokinetic (PK) profiles were next evaluated in SD rats.
endpoint-name: AUC(0-t)

Reported AUC(0-t) for `C[C@H](Oc1ccc(-c2nc3nc(C4=CCN(C(=O)OC(C)(C)C)CC4)ccc3[nH]2)cc1)c1ccccc1` : what is it?
208 ng·h/mL

###

Test: Pharmacokinetic study
Assay type: in vivo, SD rats
Conditions: male, SD, rat, plasma, po, 10 mg/kg, p.o. 10 mg/kg, 2.00 h; read-out: Concentration in rat plasma, mean
endpoint-name: concentration at 2 h
Please provide the amount together with its unit, number first.

Reported concentration at 2 h for `C[C@H](Oc1ccc(-c2nc3nc(C4=CCN(C(=O)OC(C)(C)C)CC4)ccc3[nH]2)cc1)c1ccccc1` : what is it?
7.23 ng/mL

###

Tested on: A549 cells
Experiment: Cell viability assay (CCK-8), A549
Type: cell-based
Conditions: Homo sapiens, A549, 72 h, read-out: IC50 cell proliferation, A549, 72 h
endpoint-name: IC50 (nM)
Give bare numbers, in nM.

Request body: readout IC50, system A549 cells, query `C[C@H](Oc1ccc(-c2nc3nc(C4=CCN(C(=O)OC(C)(C)C)CC4)ccc3[nH]2)cc1)c1ccccc1` . Return the value.
890

###

Assay: Pharmacokinetic study
Type: in vivo, SD rats
Conditions: male, Sprague-Dawley (SD), rat, plasma, po, 10 mg/kg, SD rats, 10 mg/kg po, mean; read-out: Tmax
Procedure: W2014-S was given to SD rats (male, 230-260g, n = 6) by gavage and intravenous administration. The rats were fasted for 12 h before administration and remained fasting for 2 h. For oral gavage, W2014-S was dissolved in DMSO/0.5% HPMC (5/95, v/v/), and W2014-S was dissolved in DMSO/EtOH/PEG300/0.9% NaCl (5/5/40/50, v/v/v/v) for intravenous administration. The pharmacokinetic (PK) profiles were next evaluated in SD rats.
endpoint-name: Tmax

Reported Tmax for `C[C@H](Oc1ccc(-c2nc3nc(C4=CCN(C(=O)OC(C)(C)C)CC4)ccc3[nH]2)cc1)c1ccccc1` : what is it?
1.67 h
